Please go through the items and note down their IC50.
Biological target: Human factor Xa (Homo sapiens, UniProt P00742)
Sequence (P00742 235-488 limits assumed): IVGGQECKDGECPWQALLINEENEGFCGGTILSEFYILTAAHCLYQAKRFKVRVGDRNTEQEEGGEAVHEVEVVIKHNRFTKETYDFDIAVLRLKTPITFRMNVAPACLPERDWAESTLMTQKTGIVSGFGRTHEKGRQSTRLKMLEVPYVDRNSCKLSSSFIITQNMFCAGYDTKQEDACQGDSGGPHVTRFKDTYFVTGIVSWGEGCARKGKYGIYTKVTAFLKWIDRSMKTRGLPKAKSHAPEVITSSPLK
Sequence (P00742 41-179 limits assumed): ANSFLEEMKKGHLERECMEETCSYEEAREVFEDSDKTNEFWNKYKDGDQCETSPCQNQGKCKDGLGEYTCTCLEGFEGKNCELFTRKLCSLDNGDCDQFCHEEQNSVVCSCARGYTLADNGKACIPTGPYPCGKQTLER
Test: Xa Assay

Param item = N=C(N)c1ccc(CNC(=O)Cn2c(Cc3ccccc3)cnc(NCCc3ccccc3)c2=O)cc1 [Example 2] ; retrieve measured IC50.
> 100 µM

Query (compound): CNc1cccc(-c2c(Cl)nc(NC(C)C)c(=O)n2CC(=O)NCc2ccc(C(=N)N)cc2)c1 [Example 104] ; field requested: IC50
> 30 µM

# IC50 lookup, item N=C(N)NCCC[C@H](NC(=O)Cn1c(-c2ccccc2)cnc(NCCc2ccccc2)c1=O)C(=O)c1nccs1 [Example 6]
1 µM

====

Molecular target: TF-VIIa (Homo sapiens, UniProt P08709)
Construct: 2nM recombinant human factor VIIa; purchased American Diagnostica, Greenwich CT; host or cells: soluble TF made in house in E. coli
Sequence (P08709 213-466 limits assumed): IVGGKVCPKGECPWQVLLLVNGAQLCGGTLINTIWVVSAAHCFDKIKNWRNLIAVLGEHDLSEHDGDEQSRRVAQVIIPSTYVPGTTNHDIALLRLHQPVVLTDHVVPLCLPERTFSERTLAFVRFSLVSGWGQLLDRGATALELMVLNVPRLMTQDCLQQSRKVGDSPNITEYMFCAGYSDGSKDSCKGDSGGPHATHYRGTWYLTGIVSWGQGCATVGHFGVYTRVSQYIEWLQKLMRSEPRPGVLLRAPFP
Sequence (P08709 61-212 limits assumed): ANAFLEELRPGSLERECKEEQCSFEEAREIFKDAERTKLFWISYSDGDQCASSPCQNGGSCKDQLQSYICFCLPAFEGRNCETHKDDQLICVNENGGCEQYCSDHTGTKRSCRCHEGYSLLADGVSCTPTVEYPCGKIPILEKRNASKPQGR
Sequence (P13726 33-251 partner limits assumed): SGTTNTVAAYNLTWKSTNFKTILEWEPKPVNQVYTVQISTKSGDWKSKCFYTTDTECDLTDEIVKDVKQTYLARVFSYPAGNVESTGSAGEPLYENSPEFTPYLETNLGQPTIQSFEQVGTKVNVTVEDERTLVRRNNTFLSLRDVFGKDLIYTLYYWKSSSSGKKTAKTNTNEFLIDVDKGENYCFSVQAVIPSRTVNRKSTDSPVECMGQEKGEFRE
Assay: TF-VIIa Assay
Format: biochemical
Settings: read-out: IC50 or % Inhibition TF-VIIa (30 µM); cells without % sign: IC50
Reported endpoint: log10(IC50) (log10 of the value in nM)
Transform log10 | Measure IC50 | Unit nM

Could you share which log10(IC50) value was measured for N=C(N)c1ccc(CNC(=O)Cn2c(-c3cccc(N)c3)c(Cl)nc(NCCN3CCCC3)c2=O)c(F)c1 [1543-37] ?
3.09

Which measured log10(IC50) value corresponds to N=C(N)c1ccc(CNC(=O)Cn2c(-c3cccc(N)c3)c(Cl)nc(NCCCn3ccnc3)c2=O)cc1 [1543-07] ?
2.32

What value of log10(IC50) has been reported for the following compound? N=C(N)c1ccc(CNC(=O)Cn2c(-c3cccc(N)c3)c(Cl)nc(NCCCN3CCCC3)c2=O)cc1 [1543-27]
2.58

Value lookup for log10(IC50); key = N=C(N)c1ccc(CNC(=O)Cn2c(-c3cccc(N)c3)c(Cl)nc(NCCN3CCCC3)c2=O)cc1 [1543-03]
2.81

What value of measured log10(IC50) is listed for N=C(N)c1ccc(CNC(=O)Cn2c(-c3cccc(N)c3)c(Cl)nc(NCCN3CCCCC3)c2=O)cc1 [1543-15] ?
2.98

Query (compound): N=C(N)c1ccc(CNC(=O)Cn2c(-c3cccc(N)c3)c(Cl)nc(NCCCCN3CCCC3)c2=O)cc1 [1543-21] ; field requested: log10(IC50)
2.46

For the compound CCNc1nc(Cl)c(-c2cccc(N)c2)n(CC(=O)NCc2ccc(C(=N)N)cc2F)c1=O [1543-31] , what log10(IC50) is on record?
1.60

Data request, read-out log10(IC50), for CC(C)Nc1nc(Cl)c(-c2cccc(N)c2)n(CC(=O)NCc2ccc(C(=N)N)cc2F)c1=O [1543-40]
1.60

Given CC(CNc1nc(Cl)c(-c2cccc(N)c2)n(CC(=O)NCc2ccc(C(=N)N)cc2)c1=O)N(C)C (centres unmarked) [1543-19] , state its recorded log10(IC50).
2.34

What log10(IC50) value was documented for this compound, N=C(N)c1ccc(CNC(=O)Cn2c(-c3cccc(N)c3)c(Cl)nc(NC3CCCC3)c2=O)c(F)c1 [1543-34] ?
1.90

Dear colleague, I am looking for the recorded log10(IC50) of the following compound: CCCNc1nc(Cl)c(-c2cccc(N)c2)n(CC(=O)NCc2ccc(C(=N)N)cc2F)c1=O [1543-35]
1.85

If you can, please state the reported log10(IC50) value of N=C(N)c1ccc(CNC(=O)Cn2c(-c3cccc(N)c3)c(Cl)nc(NC3CC3)c2=O)c(F)c1 [1543-33] .
1.48

What value of log10(IC50) has been reported for the following compound? CC(C)CNc1nc(Cl)c(-c2cccc(N)c2)n(CC(=O)NCc2ccc(C(=N)N)cc2F)c1=O [1543-38]
1.95

Query: log10(IC50); subject: CCCCNc1nc(Cl)c(-c2cccc(N)c2)n(CC(=O)NCc2ccc(C(=N)N)cc2F)c1=O [1543-36]
1.90
